// reported self-splicing fitness (ln) for each item listed
assay: self-splicing fitness, log relative to wild type (ln ratio); higher = more splicing; Tetrahymena group I intron in knt gene, E. coli kanamycin selection, DiMSum; sequences stand for … in CUCUCU…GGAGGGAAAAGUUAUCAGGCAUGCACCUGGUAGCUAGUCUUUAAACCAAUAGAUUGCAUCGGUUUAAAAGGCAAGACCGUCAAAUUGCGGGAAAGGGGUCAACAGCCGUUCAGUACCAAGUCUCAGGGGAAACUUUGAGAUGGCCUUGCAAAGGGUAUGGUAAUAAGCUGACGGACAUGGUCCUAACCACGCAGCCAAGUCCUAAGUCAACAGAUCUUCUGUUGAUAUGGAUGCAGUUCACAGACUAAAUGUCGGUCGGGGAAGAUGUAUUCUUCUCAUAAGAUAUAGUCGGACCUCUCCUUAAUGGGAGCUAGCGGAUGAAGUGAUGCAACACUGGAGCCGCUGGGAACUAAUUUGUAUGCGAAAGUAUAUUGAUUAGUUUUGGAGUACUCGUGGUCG; details: 30 °C;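 further: selection with 25 µg/mL kanamycin versus none on LB agar overnight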
Write no unit; give the number alone.

Completed entries (count: 4):
ACCCAGCAAUAUUACGACAG    -3.36
CAACAGCAAUAUUACGCCAC    -3.26
AAGUAGCAAUAUUACGACCG    -1.89
GGUGAGCAAUAUUACGUGUC    -3.03

# self-splicing fitness (ln) lookup, item UAUAAGCAAUAUUACGUCGG
-0.782

# self-splicing fitness (ln) lookup, item GAAUAGCAAUAUUACGGGCG
-1.16

# self-splicing fitness (ln) lookup, item CUCAAGCAAUAUUACGCGUG
-3.3

# self-splicing fitness (ln) lookup, item CCAUAGCAAUAUUACGUUAU
-3.34
